Each entry below carries its reported CC50.
# System: HepG2
# testDetails: Cytotoxicity against human HepG2 cells assessed as reduction in cell viability incubated for 72 hrs by MTT assay
# Assay type: toxicity, cell-based
# measurementContext: hepg2, 72 h, 72 h

Problem: Report value only: CC50, HepG2, Cc1ccc(-c2cc3nc(NC(C)(C)C)[nH]c(=O)c3o2)cc1.Cl
Result: 21.7 µM

New cases:
Problem: Give reported CC50 for Cc1ccc(-c2cc3nc(NC(C)C)[nH]c(=O)c3[se]2)cc1 (HepG2)
Result: > 25 µM

Problem: Enter recorded CC50 with HepG2 for Cc1ccc(-c2cc3nc(NC(C)(C)C)[nH]c(=O)c3[se]2)cc1.Cl here.
Result: > 3.12 µM

Problem: Report value: CC50, system: HepG2, compound: Cc1ccc(-c2cc3nc(NC(C)(C)C)[nH]c(=O)c3[se]2)cc1
Result: > 7.8 µM

Problem: Provide the reported CC50 (system: HepG2) for Cc1ccc(-c2cc3nc(NC(C)C)[nH]c(=O)c3[se]2)cc1.Cl
Result: > 10 µM

Source of measurements: ChEMBL document CHEMBL5104145
